- assayed system: Adrenergic receptor alpha-2 (Rattus norvegicus, UniProt P22086+P19328+P22909)
- Sequence (P22086 whole entry): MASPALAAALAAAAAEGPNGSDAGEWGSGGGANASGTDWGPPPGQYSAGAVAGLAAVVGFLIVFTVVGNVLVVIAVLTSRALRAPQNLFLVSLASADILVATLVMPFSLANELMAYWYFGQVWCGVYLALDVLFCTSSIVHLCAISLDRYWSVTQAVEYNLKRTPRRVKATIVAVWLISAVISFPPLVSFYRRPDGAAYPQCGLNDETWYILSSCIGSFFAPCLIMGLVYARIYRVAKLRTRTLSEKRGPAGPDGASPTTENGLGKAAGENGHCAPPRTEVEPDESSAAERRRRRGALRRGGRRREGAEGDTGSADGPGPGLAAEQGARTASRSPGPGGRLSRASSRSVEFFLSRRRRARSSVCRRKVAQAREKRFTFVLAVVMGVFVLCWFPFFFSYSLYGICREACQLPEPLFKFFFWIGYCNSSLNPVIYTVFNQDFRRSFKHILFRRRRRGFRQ
- Sequence (P19328 whole entry): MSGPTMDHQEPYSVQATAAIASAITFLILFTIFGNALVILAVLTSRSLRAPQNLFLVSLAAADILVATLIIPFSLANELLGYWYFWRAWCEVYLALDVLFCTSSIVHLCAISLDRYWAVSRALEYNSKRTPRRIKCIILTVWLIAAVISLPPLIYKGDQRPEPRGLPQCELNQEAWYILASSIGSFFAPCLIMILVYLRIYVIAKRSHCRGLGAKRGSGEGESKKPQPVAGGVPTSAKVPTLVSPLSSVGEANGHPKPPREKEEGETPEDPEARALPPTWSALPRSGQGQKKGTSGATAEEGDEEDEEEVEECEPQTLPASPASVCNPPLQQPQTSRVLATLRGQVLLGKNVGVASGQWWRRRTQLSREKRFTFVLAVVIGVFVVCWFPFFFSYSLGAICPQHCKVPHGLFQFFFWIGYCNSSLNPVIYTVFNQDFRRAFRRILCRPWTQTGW
- Sequence (P22909 whole entry): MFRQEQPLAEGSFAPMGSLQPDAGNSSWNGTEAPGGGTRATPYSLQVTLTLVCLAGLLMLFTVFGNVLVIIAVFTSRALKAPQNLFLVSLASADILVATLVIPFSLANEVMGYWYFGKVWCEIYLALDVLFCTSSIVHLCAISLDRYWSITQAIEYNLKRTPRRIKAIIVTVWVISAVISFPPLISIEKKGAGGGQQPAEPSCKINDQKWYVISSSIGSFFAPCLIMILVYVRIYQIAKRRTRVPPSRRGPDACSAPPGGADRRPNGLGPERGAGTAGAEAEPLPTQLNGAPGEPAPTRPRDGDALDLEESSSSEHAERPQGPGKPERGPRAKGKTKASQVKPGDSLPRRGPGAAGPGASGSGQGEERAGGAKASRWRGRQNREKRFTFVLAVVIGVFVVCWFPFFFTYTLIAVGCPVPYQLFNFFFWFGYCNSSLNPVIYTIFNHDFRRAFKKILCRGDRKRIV
- measurement notes: Inhibitory activity against [3H]clonidine binding to Alpha-2 adrenergic receptor in rat cortex
property: IC50 (nM)
Return type: number; implicit unit nM.

Item: CN(c1ccncc1)n1ccc2ccccc21 | System: Adrenergic receptor alpha-2 (Rattus norvegicus, UniProt P22086+P19328+P22909) | IC50: 24

# lookup: C#CCN(c1ccncc1)n1ccc2ccccc21 on Adrenergic receptor alpha-2 (Rattus norvegicus, UniProt P22086+P19328+P22909), IC50 = 500

With Adrenergic receptor alpha-2 (Rattus norvegicus, UniProt P22086+P19328+P22909) as the test system, CCCN(c1ccncc1)n1cc(CC)c2ccccc21 showed IC50 of 3600

Lab note: molecule CCN(c1ccncc1)n1ccc2ccccc21 tested on Adrenergic receptor alpha-2 (Rattus norvegicus, UniProt P22086+P19328+P22909); recorded IC50 was 110

Hey, Adrenergic receptor alpha-2 (Rattus norvegicus, UniProt P22086+P19328+P22909) data for CCCN(c1ccncc1)n1cc(C)c2ccccc21 : IC50 came out at 2500

Case c1ccc2c(c1)ccn2Nc1ccncc1 , Adrenergic receptor alpha-2 (Rattus norvegicus, UniProt P22086+P19328+P22909), IC50 recorded as 8

For CCCN(c1ccncc1)n1ccc2ccccc21 [BESIPIRDINE] on Adrenergic receptor alpha-2 (Rattus norvegicus, UniProt P22086+P19328+P22909), measured IC50 was 330

Sample CCCN(c1ccncc1)n1c(C)cc2ccccc21 , system: Adrenergic receptor alpha-2 (Rattus norvegicus, UniProt P22086+P19328+P22909). Its IC50 is 2300

// molecule CCCCN(c1ccncc1)n1ccc2ccccc21 , assay Adrenergic receptor alpha-2 (Rattus norvegicus, UniProt P22086+P19328+P22909), IC50 value: 630

Lab note: molecule CCCN(c1ccncc1)n1c2ccccc2c2ccccc21.O=C(O)/C=C/C(=O)O tested on Adrenergic receptor alpha-2 (Rattus norvegicus, UniProt P22086+P19328+P22909); recorded IC50 was 540
